Recorded pIC50 values for a group of molecules are listed next.
Test system: Phospho-ERK1/2 in DLD1 cells
run-description: Phospho-ERK1/2 expression inhibition in DLD1 cells
Format: cell-based
conditions-used: Homo sapiens, DLD-1, 4 hours, read-out: DLD1 pERK IC50
pIC50: −log10 of the molar value.

# chemical-string, result
rows = [
    ("C[C@@H](Nc1ccnc2ccc(N3CCN(C(=O)[C@H]4CCOC4)CC3)cc12)c1cccc(C(F)F)c1F", "6.30 to 6.82"),
]

Data request: Entry [2H]C([2H])([2H])O[C@]1(c2ccc3nccc(N[C@H](C)c4cccc(C(F)F)c4F)c3c2)CCN(C(C)=O)C1 , system Phospho-ERK1/2 in DLD1 cells: what pIC50 was measured?
Data returned: ≥ 6.82

Data request: Provide the documented pIC50 with Phospho-ERK1/2 in DLD1 cells as the system for Cc1c([C@@H](C)Nc2ccnc3ccc(N4C[C@@H](C)NC[C@@H]4C)cc23)cccc1C(F)(F)F
Data returned: < 6.30

Data request: Lab note: need pIC50 for Cc1c([C@@H](C)Nc2ccnc3ccc(N4CCCNCC4)cc23)cccc1C(F)(F)F on Phospho-ERK1/2 in DLD1 cells, anyone have it?
Data returned: < 6.30
